// provenance: patent EP1420018A1

minimal effective dose reference
System: Anxiety in the Adult Male Rat
Assay: Suppression of Anxiety in the Adult Male Rat (rat conflict test)
Format: in vivo, rats
Conditions: Rattus norvegicus, po, rat, po; read-out: Rat Conflict (MED, mg/kg) po

// known answers, use as guide
| Compound | Assayed Target | minimal effective dose |
| --- | --- | --- |
| COCCN1C2=C(C(=O)Nc3ccc(Cl)cc3)C(=O)CCN2c2ccccc21 | Anxiety in the Adult Male Rat | 1 mg/kg |
| CCOCN1C2=C(C(=O)Nc3ccc(O)cc3F)C(=O)CCN2c2ccc(F)cc21 | Anxiety in the Adult Male Rat | 1 to 3 mg/kg |
| O=C1CCN2C(=C1C(=O)Nc1ccccc1F)N(CCNC(=O)c1ccccc1)c1cc(F)ccc12 | Anxiety in the Adult Male Rat | ~10 mg/kg |
| O=C1CCN2C(=C1C(=O)Nc1ccccc1F)N(CCCOCc1ccccc1)c1cc(F)ccc12 | Anxiety in the Adult Male Rat | > 10 mg/kg |

For reference, reported minimal effective dose for COCCN1C2=C(C(=O)Nc3ccc(Br)s3)C(=O)CCN2c2ccc(F)cc21 stands at > 10 mg/kg
